Test: Clearance of 99m-Tc-IMP-192 in BALB/c mice
Assay type: in vivo
Settings: BALB/c, mouse; Spleen, 24 h
Where a SMILES comes first, the peptide text is derived from it. Side-chain parts run from the residue outwards. The star is where a group is joined. DTPA = O=C(O)CN(CCN(CC(=O)O)CC(=O)O)CCN(CC(=O)O)CC(=O)*; X1 = NC(=S)NN=CC(=O)*
Measured Quantity: tissue uptake at 24 h (%ID/g)
Expressed in %ID/g, but write only the number.

Would you mind telling me what tissue uptake at 24 h value was observed for CC(=O)N[C@@H](CCCCNC(=O)CN(CCN(CCN(CC(=O)O)CC(=O)O)CC(=O)O)CC(=O)O)C(=O)N[C@@H](Cc1ccc(O)cc1)C(=O)N[C@@H](CCCCNC(=O)CN(CCN(CCN(CC(=O)O)CC(=O)O)CC(=O)O)CC(=O)O)C(=O)N[C@@H](CCCCNC(=O)[C@H](CS)NC(=O)C=NNC(N)=S)C(N)=O [IMP 192] (Ac-K(DTPA)YK(DTPA)K([Cys-X1])-NH2) ?
0.03
